Target: UniProt Q06187
Sequence (Q06187 whole entry, looked up): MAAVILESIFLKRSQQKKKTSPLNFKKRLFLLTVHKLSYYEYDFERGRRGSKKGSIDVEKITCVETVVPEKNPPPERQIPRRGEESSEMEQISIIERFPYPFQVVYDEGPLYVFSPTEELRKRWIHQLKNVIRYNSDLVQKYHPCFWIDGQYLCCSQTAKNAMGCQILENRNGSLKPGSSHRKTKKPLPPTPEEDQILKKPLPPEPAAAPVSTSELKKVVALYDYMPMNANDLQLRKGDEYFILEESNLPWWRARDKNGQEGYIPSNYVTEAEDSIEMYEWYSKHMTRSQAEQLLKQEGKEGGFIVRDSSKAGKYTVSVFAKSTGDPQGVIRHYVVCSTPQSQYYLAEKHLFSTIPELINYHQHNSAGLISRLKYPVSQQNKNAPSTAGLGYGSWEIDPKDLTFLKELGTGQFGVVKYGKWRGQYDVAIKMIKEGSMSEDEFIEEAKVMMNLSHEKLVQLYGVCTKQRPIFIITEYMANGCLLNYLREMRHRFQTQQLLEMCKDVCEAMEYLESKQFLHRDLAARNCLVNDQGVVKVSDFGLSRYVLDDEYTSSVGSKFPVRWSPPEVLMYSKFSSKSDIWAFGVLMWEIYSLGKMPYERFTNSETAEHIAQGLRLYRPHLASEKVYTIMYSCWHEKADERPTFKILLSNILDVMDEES
pKd: −log10 of the molar value.
result.type: pKd

Q: Recorded pKd of Oc1ccc(-c2nc(-c3ccc(F)cc3)c(-c3ccncc3)[nH]2)cc1 , please.
Ans: < 5.00

###

Molecular target: FYN (human)
result.type: Kd

Q: Entry under review: Oc1ccc(-c2nc(-c3ccc(F)cc3)c(-c3ccncc3)[nH]2)cc1 . Reported Kd?
Ans: > 10 µM

###

Here's what we have: Kd numbers for PHKG1 (human) (UniProt Q16816).

Q: So what does the record say about Kd for Oc1ccc(-c2nc(-c3ccc(F)cc3)c(-c3ccncc3)[nH]2)cc1 ?
Ans: > 10 µM

Q: And O=C1c2ccccc2-c2n[nH]c3cccc1c23 ?
Ans: > 10 µM

###

Molecular target: AURKC (human) (UniProt Q9UQB9)
Sequence (Q9UQB9 whole entry, looked up): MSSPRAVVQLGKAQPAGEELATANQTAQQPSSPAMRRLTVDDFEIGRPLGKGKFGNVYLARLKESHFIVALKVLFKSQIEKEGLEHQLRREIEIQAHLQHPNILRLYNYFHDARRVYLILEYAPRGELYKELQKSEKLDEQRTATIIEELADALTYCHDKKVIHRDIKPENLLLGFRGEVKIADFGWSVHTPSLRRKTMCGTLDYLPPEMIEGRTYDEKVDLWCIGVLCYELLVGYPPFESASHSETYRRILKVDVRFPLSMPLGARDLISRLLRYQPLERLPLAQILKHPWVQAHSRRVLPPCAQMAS
result.type: Kd

[[record]]
smiles = "Oc1ccc(-c2nc(-c3ccc(F)cc3)c(-c3ccncc3)[nH]2)cc1"
assay_value = "> 10 µM"


// below: Kd requested for another molecule
Q: // Kd lookup, key: CCOc1cc2ncc(C#N)c(Nc3ccc(F)c(Cl)c3)c2cc1NC(=O)/C=C/CN(C)C
Ans: > 10 µM

###

// endpoint Kd / system RPS6KA5 KD1 (human)

[[record]]
smiles = "Oc1ccc(-c2nc(-c3ccc(F)cc3)c(-c3ccncc3)[nH]2)cc1"
target_desc = "RPS6KA5 KD1 (human)"
assay_value = "> 10 µM"


From here, focus on the item given below.
Q: Fill blank: measured Kd of the compound CCOc1cc2ncc(C#N)c(Nc3ccc(F)c(Cl)c3)c2cc1NC(=O)/C=C/CN(C)C is ____.
Ans: > 10 µM

###

Target: EPHA2 (human) (UniProt P29317)
Sequence (P29317 whole entry, looked up): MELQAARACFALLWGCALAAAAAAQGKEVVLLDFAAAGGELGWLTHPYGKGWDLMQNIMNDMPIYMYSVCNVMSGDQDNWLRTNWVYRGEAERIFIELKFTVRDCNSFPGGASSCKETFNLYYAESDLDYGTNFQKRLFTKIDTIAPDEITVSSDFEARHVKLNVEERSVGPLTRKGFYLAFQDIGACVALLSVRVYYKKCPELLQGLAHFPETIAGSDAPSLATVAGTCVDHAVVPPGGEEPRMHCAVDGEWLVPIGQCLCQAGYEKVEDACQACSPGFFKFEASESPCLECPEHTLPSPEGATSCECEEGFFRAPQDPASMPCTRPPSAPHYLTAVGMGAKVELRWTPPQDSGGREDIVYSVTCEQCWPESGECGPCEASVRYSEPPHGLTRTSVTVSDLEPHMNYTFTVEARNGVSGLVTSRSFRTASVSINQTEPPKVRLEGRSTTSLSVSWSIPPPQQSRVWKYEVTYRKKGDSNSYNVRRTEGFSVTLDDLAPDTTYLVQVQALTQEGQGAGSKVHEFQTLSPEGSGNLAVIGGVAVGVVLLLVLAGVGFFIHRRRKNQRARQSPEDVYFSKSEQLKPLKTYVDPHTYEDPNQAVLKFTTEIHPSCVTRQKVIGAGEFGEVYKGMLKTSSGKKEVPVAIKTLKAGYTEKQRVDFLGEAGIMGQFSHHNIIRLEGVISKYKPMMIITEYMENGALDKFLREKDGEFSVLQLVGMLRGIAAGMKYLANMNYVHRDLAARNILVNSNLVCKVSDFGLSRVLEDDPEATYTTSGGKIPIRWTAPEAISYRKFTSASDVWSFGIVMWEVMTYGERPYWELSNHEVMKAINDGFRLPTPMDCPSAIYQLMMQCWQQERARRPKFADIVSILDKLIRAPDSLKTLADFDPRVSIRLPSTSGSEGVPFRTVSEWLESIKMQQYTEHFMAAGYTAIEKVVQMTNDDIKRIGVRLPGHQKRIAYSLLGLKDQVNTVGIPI
Assay: KINOMEscan competition binding
pKd: −log10 of the molar value.
Overview of recorded pKd for various compounds

Recorded pKd, per entry:
[[record]]
smiles = "Oc1ccc(-c2nc(-c3ccc(F)cc3)c(-c3ccncc3)[nH]2)cc1"
assay_value = "< 5.00"

[[record]]
smiles = "CCOc1cc2ncc(C#N)c(Nc3ccc(F)c(Cl)c3)c2cc1NC(=O)/C=C/CN(C)C"
assay_value = "< 5.00"


// next item, pKd requested
Q: Request body: readout pKd, system EPHA2 (human) (UniProt P29317), query O=C1c2ccccc2-c2n[nH]c3cccc1c23 . Return the value.
Ans: < 5.00

###

UniProt:Q00535 data, read-out pKd
Sequence (Q00535 whole entry, looked up): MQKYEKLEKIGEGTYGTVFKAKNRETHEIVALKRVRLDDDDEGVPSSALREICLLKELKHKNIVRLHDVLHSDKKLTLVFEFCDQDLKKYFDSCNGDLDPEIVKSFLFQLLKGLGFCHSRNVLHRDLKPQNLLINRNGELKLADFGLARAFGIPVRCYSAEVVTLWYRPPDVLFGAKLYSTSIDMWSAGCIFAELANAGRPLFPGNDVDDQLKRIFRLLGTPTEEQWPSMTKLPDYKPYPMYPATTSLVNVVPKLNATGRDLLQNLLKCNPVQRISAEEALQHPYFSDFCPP
pKd: −log10 of the molar value.

[[record]]
smiles = "Oc1ccc(-c2nc(-c3ccc(F)cc3)c(-c3ccncc3)[nH]2)cc1"
assay_value = "< 5.00"


Q: Requested read-out: pKd. Entry: CCOc1cc2ncc(C#N)c(Nc3ccc(F)c(Cl)c3)c2cc1NC(=O)/C=C/CN(C)C
Ans: < 5.00

###

Target: KDR (human) (UniProt P35968)
Sequence (P35968 whole entry, looked up): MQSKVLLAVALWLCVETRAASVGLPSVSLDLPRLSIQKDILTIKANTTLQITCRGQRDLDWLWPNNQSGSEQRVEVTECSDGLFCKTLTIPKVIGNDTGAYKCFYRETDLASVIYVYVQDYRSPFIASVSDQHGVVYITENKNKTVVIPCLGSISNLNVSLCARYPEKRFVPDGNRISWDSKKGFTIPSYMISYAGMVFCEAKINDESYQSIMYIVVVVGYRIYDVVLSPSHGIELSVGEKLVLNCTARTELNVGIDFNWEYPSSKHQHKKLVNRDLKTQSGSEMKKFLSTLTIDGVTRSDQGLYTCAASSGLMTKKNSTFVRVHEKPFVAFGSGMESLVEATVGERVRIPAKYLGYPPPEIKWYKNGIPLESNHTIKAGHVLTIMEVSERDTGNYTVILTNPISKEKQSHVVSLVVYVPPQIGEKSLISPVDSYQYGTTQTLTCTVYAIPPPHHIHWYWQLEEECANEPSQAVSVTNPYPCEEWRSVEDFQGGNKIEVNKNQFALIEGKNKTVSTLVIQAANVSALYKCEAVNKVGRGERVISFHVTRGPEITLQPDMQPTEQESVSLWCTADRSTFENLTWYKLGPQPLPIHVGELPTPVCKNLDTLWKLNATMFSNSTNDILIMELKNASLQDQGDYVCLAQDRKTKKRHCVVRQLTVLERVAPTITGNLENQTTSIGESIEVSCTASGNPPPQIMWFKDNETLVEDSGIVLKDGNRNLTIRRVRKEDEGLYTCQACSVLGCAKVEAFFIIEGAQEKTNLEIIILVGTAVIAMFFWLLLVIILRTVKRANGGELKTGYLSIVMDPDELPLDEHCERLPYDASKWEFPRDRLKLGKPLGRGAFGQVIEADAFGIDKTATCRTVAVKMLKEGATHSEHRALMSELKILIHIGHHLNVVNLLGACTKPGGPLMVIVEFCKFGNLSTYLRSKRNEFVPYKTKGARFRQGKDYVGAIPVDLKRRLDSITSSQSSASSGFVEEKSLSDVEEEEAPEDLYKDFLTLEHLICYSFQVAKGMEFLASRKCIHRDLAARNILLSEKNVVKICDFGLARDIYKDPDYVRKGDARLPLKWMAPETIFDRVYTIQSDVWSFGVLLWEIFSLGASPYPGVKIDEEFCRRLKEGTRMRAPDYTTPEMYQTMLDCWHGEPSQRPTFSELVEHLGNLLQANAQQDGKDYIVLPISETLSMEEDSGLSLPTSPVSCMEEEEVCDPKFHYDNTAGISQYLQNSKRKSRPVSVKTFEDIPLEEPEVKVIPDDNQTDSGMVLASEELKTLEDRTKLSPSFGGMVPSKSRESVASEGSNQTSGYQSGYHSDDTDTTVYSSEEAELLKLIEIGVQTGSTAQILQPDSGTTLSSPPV
result.type: Kd

[[record]]
smiles = "CCOc1cc2ncc(C#N)c(Nc3ccc(F)c(Cl)c3)c2cc1NC(=O)/C=C/CN(C)C"
result_type = "Kd"
assay_value = "> 10 µM"


Here is another compound to look at.
Q: Under KDR (human) (UniProt P35968): Kd value of Oc1ccc(-c2nc(-c3ccc(F)cc3)c(-c3ccncc3)[nH]2)cc1 ?
Ans: > 10 µM

###

Each record here notes measured pKd.
Molecular target: JAK2 JH2 pseudokinase (human)
Experiment: KINOMEscan competition binding
pKd: −log10 of the molar value.

[[record]]
smiles = "Oc1ccc(-c2nc(-c3ccc(F)cc3)c(-c3ccncc3)[nH]2)cc1"
result_type = "pKd"
assay_value = "< 5.00"


Pending molecule:
Q: Entry O=C1c2ccccc2-c2n[nH]c3cccc1c23 : reported pKd = ?
Ans: < 5.00
